Target: mouse ACVR2A (mouse, UniProt P27038 20-135, limits assumed); note: test concentration or dose not given here
Sequence (P27038 20-135 limits assumed): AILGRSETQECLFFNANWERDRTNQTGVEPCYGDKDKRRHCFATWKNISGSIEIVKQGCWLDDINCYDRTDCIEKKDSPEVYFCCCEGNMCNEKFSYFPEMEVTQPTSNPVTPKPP
Experiment: ELISA
Protocol: The binding of ACVR2A-specific monoclonal antibodies to human ACVR2A, mouse ACVR2A, biotinylated goat anti-human kappa light chain (positive control) and human Fc (negative control) were determined by ELISA.
Reported optical density values for a set of binders
Give the number; OD is assumed, so skip it.

Here are 2 binders together with their reported answers.
374_E02 (antibody, V domains shown, VH/VL only) VH: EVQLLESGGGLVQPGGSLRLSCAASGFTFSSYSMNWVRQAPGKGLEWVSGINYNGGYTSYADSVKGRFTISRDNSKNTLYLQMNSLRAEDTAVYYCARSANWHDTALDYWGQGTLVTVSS VL: DIQMTQSPSSLSASVGDRVTITCRASQSILSYLNWYQQKPGKAPKLLIYAATSLASGVPSRFSGSGSGTDFTLTISSLQPEDFATYYCQQSYDLPLTFGGGTKVEIK
3.33
365_C07 (antibody, V domains shown, VH/VL only) VH: EVQLLESGGGLVQPGGSLRLSCAASGFTFSDYGMNWVRQAPGKGLEWVASINYNGGYTSYADSVKGRFTISRDNSKNTLYLQMNSLRAEDTAVYYCARSATWHDTALDYWGQGTLVTVSS VL: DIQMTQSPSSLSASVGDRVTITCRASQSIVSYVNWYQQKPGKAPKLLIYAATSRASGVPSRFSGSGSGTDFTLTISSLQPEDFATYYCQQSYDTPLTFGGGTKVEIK
1.92

Let us move to another entry and its optical density.
Short answer for 374_H06 (antibody, V domains shown, VH/VL only) VH: EVQLLESGGGLVQPGGSLRLSCAASGFTFSSYGMNWVRQAPGKGLEWVSNINYNGGYTGYADSVKGRFTISRDNSKNTLYLQMNSLRAEDTAVYYCARSANWHDTALDYWGQGTLVTVSS VL: DIQMTQSPSSLSASVGDRVTITCRASQSIVSYVNWYQQKPGKAPKLVIYAATSRASGVPSRFSGSGSGTDFTLTISSLQPEDFATYYCQQSYNLPLTFGGGTKVEIK : optical density was 3.26
